# Tested on: PC-3 prostate
# test.protocol: NCI tumour cell line growth inhibition, 48 h
For each entry below, report its TGI value.

Item O=c1c2cc(S(=O)(=O)O)ccc2nc(COc2ccc(Oc3ccc(Cl)cc3Cl)cc2)n1-c1ccc(Oc2ccc(Cl)cc2)cc1Cl : provide TGI > 100 µM

Item CC(=O)NCc1cccc(C#Cc2cncnc2Nc2ccc(OCc3cccc(F)c3)c(Cl)c2)c1 : provide TGI > 25 µM

Item CC(=O)OCC(=O)O[C@@H]1[C@H]2[C@@H](OC(=O)c3ccccc3)[C@@H](C)C[C@]2(O)[C@H](OC(C)=O)[C@@]2(C)C(OC(C)=O)[C@]1(OC(C)=O)C[C@H]1C(=O)C(C)(C)C[C@@H]12 (stereo partly drawn) : provide TGI > 50 µM

Item COC(=O)C1=C(OC(=O)/C(=C/c2ccc(Cl)cc2)c2ccc(Cl)cc2)C(C(=O)OC)[C@]2(O)[C@@H](C(=O)OC)[C@H]1C[C@@H](c1ccccc1)[C@@H]2C(=O)OC (stereo partly drawn) : provide TGI > 100 µM

Item N#CC1=C(/N=C/c2ccccc2)Oc2c(ccc3ccccc23)C1c1ccccc1 (stereo not drawn) : provide TGI > 100 µM

Item CCOC(=O)C1(C(=O)OCC)[C@@H](c2ccccc2)C2=NO[C@@H]3CCC[C@H]1[C@H]23 : provide TGI > 100 µM

Item CC(C)=CCN1CC(C)C(=O)Nc2ccccc21 (stereo not drawn) : provide TGI > 100 µM

Item Cc1ccc(/C(C#N)=C/c2cccc([N+](=O)[O-])c2)cc1 : provide TGI > 100 µM

Item COc1c(=O)cc2cc[nH]c3ccn(C)c1c23 : provide TGI > 100 µM

Item COc1ccc(/C(Br)=C2\OC(=O)c3ccccc32)cc1 : provide TGI > 10 µM

Item C(=N/N(Cc1ccccc1)Cc1ccccc1)/c1ccccc1 : provide TGI > 100 µM

Item COc1ccc(OC)c(CNc2ccc(C(=O)O)cc2)c1 : provide TGI > 100 µM

Item C[N+](C)(C)c1ncnc2c1ncn2C1CC(O)C(CO)O1 (stereo not drawn) : provide TGI > 100 µM

Item COC(=O)c1cncc(/C=C/c2c(C)cc(O)cc2C)c1 : provide TGI > 25 µM

Item c1cc2nnc1SCCCSc1ccc(nn1)SCCCS2 : provide TGI > 100 µM

Item Cn1cc(C2=C(c3cccc(OC[C@@H](O)CO)c3)C(=O)NC2=O)c2ccccc21 : provide TGI > 25 µM

Item C=CCN1CC(=O)N2[C@@H](Cc3ccc(O)cc3F)C(=O)N(Cc3cccc(N4CC(N5CCN(CC)CC5)C4)n3)C[C@@H]2N1C(=O)NCc1ccccc1 : provide TGI > 100 µM

Item O=[N+]([O-])c1ccc(OC2CC3C4C=CC3C2C4)c([N+](=O)[O-])c1 (stereo not drawn) : provide TGI > 100 µM

----------
# Test system: UACC-257 melanoma
# test.protocol: NCI tumour cell line growth inhibition, 48 h
For each entry below, report its TGI value.

Item COc1cc2nc(-c3cc(F)ccc3O)nc(N[C@@H]3CNC[C@H]3C(C)(C)O)c2cc1OC : provide TGI 3.15 µM

Item CCCCCCCC1(N=[N+]=[N-])C(=O)Nc2ccccc2C1=O (configuration not stated) : provide TGI 41.2 µM

Item CC(=O)NCc1cccc(C#Cc2cncnc2Nc2ccc(OCc3cccc(F)c3)c(Cl)c2)c1 : provide TGI > 25 µM

Item Cn1cc(C2=C(c3cccc(OC[C@@H](O)CO)c3)C(=O)NC2=O)c2ccccc21 : provide TGI > 25 µM

Item Nc1nc(O)c2ncn([C@H]3CC[C@@H](CO)O3)c2n1 : provide TGI > 100 µM

Item CCC(=O)C(CCN1CCC2(CCCc3ccccc32)CC1)(c1ccccc1)c1ccccc1 : provide TGI 5.51 µM

Item O=C(CCCCCCN1CC(=O)N2[C@@H](c3ccc(Cl)c(Cl)c3)c3[nH]c4ccccc4c3C[C@H]2C1=O)NO : provide TGI 18.2 µM

Item OC(C#Cc1ccccc1)(c1ccccc1)c1ccccc1 : provide TGI > 100 µM

Item CC1(C)CC(=O)C(/C(=N/NC(=S)NN)C(=O)Nc2nc3ccc([N+](=O)[O-])cc3s2)C(=O)C1 : provide TGI > 100 µM

Item CC12C=CC(=O)C=C1CCC1C3CCC(O)(C(=O)CO)C3(C)CC(O)C12F (configuration not stated) : provide TGI > 100 µM

Item COc1ccc2c(c1)c1c(n2CCN(C)C)-c2ccccc2CC1 : provide TGI 30.3 µM

Item COc1cc2c(c(O)c1OC)C(=O)[C@@H]1CCC(=O)N1C2 : provide TGI > 100 µM

Item O=C(CC1SC(=Nc2ccccc2Cl)NC1=O)Nc1ccc(Cl)cc1Cl (configuration not stated) : provide TGI > 100 µM

Item CCCCCO/N=C\c1c2c(O)c3c(O)c(C)c4c(c3c1O)C(=O)C(C)(O/C=C\C(OC)C(C)C(OC(C)=O)C(C)C(O)C(C)C(O)C(C)/C=C\C=C(\C)C(=O)N2)O4 (configuration not stated) : provide TGI 6.19 µM

Item Cc1ccc2nc(N/N=C/c3sccc3C)cc(C)c2c1 : provide TGI > 100 µM

Item COc1ccc(NC(=O)C2CCC(CNS(=O)(=O)c3ccccc3)CC2)cc1OC (configuration not stated) : provide TGI > 100 µM

Item COc1ccc(-c2cc(C(=O)Nc3ccc(C)c(C)c3)nc(NC#N)n2)cc1 : provide TGI > 100 µM

Item Oc1c(I)cc(I)c2cccnc12 : provide TGI 35.5 µM

Item Cc1ccc(/C(C#N)=C/c2cccc([N+](=O)[O-])c2)cc1 : provide TGI > 100 µM

Item COC(=O)[C@H]1CCCN1C(=O)[C@H]1CCCN1C(=O)[C@@H](Cc1c[nH]c2ccccc12)NC(=S)Nc1cc(C(F)(F)F)cc(C(F)(F)F)c1 : provide TGI 4.26 µM

Item NC(=O)C(=O)C1CCC2=C(Sc3ccccc3N2)C1=O (configuration not stated) : provide TGI > 100 µM

Item Cc1nc(C(=O)O)c2ccccc2n1 : provide TGI > 100 µM

Data provenance: PubChem BioAssay (NCI)
